Value source: patent US20180201609A1

# target: IRAK-4 enzyme (Homo sapiens, UniProt Q9NWZ3)
# Construct: purchased Millipore, USA
# Sequence (Q9NWZ3 whole entry): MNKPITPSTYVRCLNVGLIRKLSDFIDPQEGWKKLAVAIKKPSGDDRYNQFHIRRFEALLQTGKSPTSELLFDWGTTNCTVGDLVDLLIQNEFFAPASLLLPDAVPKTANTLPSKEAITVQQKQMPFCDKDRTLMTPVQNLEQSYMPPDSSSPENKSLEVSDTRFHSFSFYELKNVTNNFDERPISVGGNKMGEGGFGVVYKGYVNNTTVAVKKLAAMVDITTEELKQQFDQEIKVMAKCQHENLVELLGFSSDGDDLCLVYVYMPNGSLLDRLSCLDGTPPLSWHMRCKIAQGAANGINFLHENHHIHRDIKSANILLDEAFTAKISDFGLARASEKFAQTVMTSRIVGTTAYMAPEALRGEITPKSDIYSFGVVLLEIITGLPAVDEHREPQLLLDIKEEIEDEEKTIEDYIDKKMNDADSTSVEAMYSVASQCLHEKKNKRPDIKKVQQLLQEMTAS
# experiment: IRAK-4 Biochemical Assay (TR-FRET)
# test_conditions: 0.1 μM compound, recombinant IRAK-4 kinase, 20 μM ATP
Counter-ions that a name gives are not always drawn.
reported_metric: inhibition at 0.1 µM (%)

Past entries and their recorded results:
[[record]]
molecule = "O=C(Nc1cc2cn(C3CCNCC3)nc2cc1C1CC1)c1cccc(N2CCC(O)C2)n1 (stereo not shown) [Example 54, hydrochloride]"
reported_metric = "inhibition at 0.1 µM"
unit_abbreviation = "%"
meas_value = 95

[[record]]
molecule = "Cn1cc2cc(NC(=O)c3ccnc(N4CCC(O)C4)n3)c(N3CCCCC3)cc2n1 (stereo not shown)"
reported_metric = "inhibition at 0.1 µM"
unit_abbreviation = "%"
meas_value = 79

[[record]]
molecule = "Cn1cc2cc(NC(=O)c3cc(-c4ccc(N)nc4)ccn3)c(N3CCCCC3)cc2n1 [Example 53, hydrochloride]"
reported_metric = "inhibition at 0.1 µM"
unit_abbreviation = "%"
meas_value = 0

[[record]]
molecule = "CN1CCC(n2cc3cc(NC(=O)c4cccc(N5CCC(O)C5)n4)c(C4CC4)cc3n2)CC1 (stereo not shown) [Example 56, hydrochloride]"
reported_metric = "inhibition at 0.1 µM"
unit_abbreviation = "%"
meas_value = 20

[[record]]
molecule = "O=C(Nc1cc2cn(CCN3CCOCC3)nc2cc1C1CC1)c1cccc(N2CCC(O)C2)n1 (stereo not shown)"
reported_metric = "inhibition at 0.1 µM"
unit_abbreviation = "%"
meas_value = 92


1. Cc1cc(-c2nc(C(=O)Nc3cc4c(C)n(C)nc4nc3N3CCCCC3)co2)ccn1
2. Cc1nn(C)c2cc(N3CCC(CO)CC3)c(NC(=O)c3cnn4cccnc34)cc12 [Example 8, hydrochloride]
3. Cn1cc2cc(NC(=O)c3cncc(N4CCC(O)C4)n3)c(C3CC3)cc2n1 (stereo not shown) [Example 66, hydrochloride]
4. Cc1nn(C)c2cc3c(cc12)NC(=O)c1coc(n1)-c1ccnc(c1)NCCCOCC1CCN3CC1
Rank entries according to their inhibition at 0.1 µM, from the largest number down. Answer by naming the labels in the order asked.
1, 2, 3, 4

P. COCCn1nc(C)c2cc(NC(=O)c3coc(-c4ccnc(N)c4)n3)c(N3CCC(CO)CC3)cc21 [Example 10, hydrochloride]
Q. Cn1cc2cc(NC(=O)c3cc(N4CCC(O)C4)ccn3)c(N3CCCCC3)cc2n1 (stereo not shown)
R. Cc1cc2nn(C)cc2cc1NC(=O)c1cccc(N2CCC(O)C2)n1 (stereo not shown)
Let's sort these by inhibition at 0.1 µM, smallest first. Go ahead? Answer by naming the labels in the order asked.
Q, R, P
